Origin of the recorded values: paper PMC10800023

assay: in vivo; conditions: C57BL/10, mouse, brain/plasma, oral, 5 mg/kg
attribute.measured: Kp
Answer with a bare number; do not write a unit.

Input line: Endpoint output: Kp of `C[C@@H]1C[C@H]2[C@@H]3CCC4=CC(=O)C=C[C@]4(C)C3=CC[C@]2(C)[C@@]1(O)C(=O)CO` . Value?
Output line: 0.5

---

tested on: STAT1; experiment: GRE-mediated STAT1 in cultured BMDM; assay type: cell-based, mouse; conditions: Mus musculus; BMDM, corticosteroid overnight, LPS 10 ng/ml 3 h
Recorded EC50 for the following molecules
Report only the number, with the unit nM understood.

1) C[C@@H]1C[C@H]2[C@@H]3CCC4=CC(=O)C=C[C@]4(C)C3=CC[C@]2(C)[C@@]1(O)C(=O)CO [Vamorolone] = 7.6

Input line: Request the reported EC50 associated with C[C@]12C=CC(=O)C=C1CC[C@@H]1[C@@H]2[C@@H](O)C[C@@]2(C)[C@H]1CC[C@]2(O)C(=O)CO [Prednisolone]
Output line: 9.4

Input line: Field request: EC50 | item: CC(=O)OCC(=O)[C@@]12N=C(C)O[C@@H]1C[C@H]1[C@@H]3CCC4=CC(=O)C=C[C@]4(C)[C@H]3[C@@H](O)C[C@@]12C [Deflazacort]
Output line: 3.1
